Target: HA of ca A/Panama/2007/99 (H3N2) (influenza A virus)
Assay: cell-based or functional assay
METRIC: Neutralization IC50, H3-Pa99 (µg/mL)

{"BINDER": "Antibody 6 (antibody, V domains shown) VH: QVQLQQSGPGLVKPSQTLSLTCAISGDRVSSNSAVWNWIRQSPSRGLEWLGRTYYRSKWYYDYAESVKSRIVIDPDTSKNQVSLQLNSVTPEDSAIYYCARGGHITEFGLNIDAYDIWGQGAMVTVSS VL: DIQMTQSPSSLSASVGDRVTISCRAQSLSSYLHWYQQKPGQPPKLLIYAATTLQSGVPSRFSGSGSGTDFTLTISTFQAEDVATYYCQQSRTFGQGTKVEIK", "METRIC": "Neutralization IC50, H3-Pa99", "MEASURED_VALUE": 25.8}
